percentage of EdU-negative values for the sequences below.
- Tested on: MCF7
- Protocol Text: percentage of EdU-negative (G0-arrested) nuclei per well, 72 h; higher = more G0 arrest
- Condition Notes: protein concentration 0.0225 µM; reference: sequence is the full UniProt precursor, the tested protein was the secreted form or ectodomain
Give the value in % but do not write % after it.

// known answers, use as guide
MAARRSQRRRGRRGEPGTALLVPLALGLGLALACLGLLLAVVSLGSRASLSAQEPAQEELVAEEDQDPSELNPQTEESQDPAPFLNRLVRPRRSAPKGRKTRARRAIAAHYEVHPRPGQDGAQAGVDGTVSGWEEARINSSSPLRYNRQIGEFIVTRAGLYYLYCQVHFDEGKAVYLKLDLLVDGVLALRCLEEFSATAASSLGPQLRLCQVSGLLALRPGSSLRIRTLPWAHLKAAPFLTYFGLFQVH :: 24.6
MSLMVVSMVCVGFFLLQGAWPHEGVHRKPSLLAHPGPLVKSEETVILQCWSDVRFQHFLLHREGKFKDTLHLIGEHHDGVSKANFSIGPMMQDLAGTYRCYGSVTHSPYQLSAPSDPLDIVITGLYEKPSLSAQPGPTVLAGESVTLSCSSRSSYDMYHLSREGEAHERRFSAGPKVNGTFQADFPLGPATHGGTYRCFGSFRDSPYEWSNSSDPLLVSVTGNPSNSWPSPTEPSSETGNPRHLHVLIGTSVVIILFILLLFFLLHRWCCNKKNAVVMDQEPAGNRTVNREDSDEQDPQEVTYAQLNHCVFTQRKITRPSQRPKTPPTDIIVYTELPNAEP :: 22.6
MTARAWASWRSSALLLLLVPGYFPLSHPMTVAGPVGGSLSVQCRYEKEHRTLNKFWCRPPQILRCDKIVETKGSAGKRNGRVSIRDSPANLSFTVTLENLTEEDAGTYWCGVDTPWLRDFHDPIVEVEVSVFPAGTTTASSPQSSMGTSGPPTKLPVHTWPSVTRKDSPEPSPHPGSLFSNVRFLLLVLLELPLLLSMLGAVLWVNRPQRSSRSRQNWPKGENQ :: 26.2

Quick check: percentage of EdU-negative of MVAALLGGGGEARGGTVPGAWLCLMALLQLLGSAPRGSGLAHGRRLICWQALLQCQGEPECSYAYNQYAEACAPVLAQHGGGDAPGAAAAAFPASAASFSSRWRCPSHCISALIQLNHTRRGPALEDCDCAQDENCKSTKRAIEPCLPRTSGGGAGGPGAGGVMGCTEARRRCDRDSRCNLALSRYLTYCGKVFNGLRCTDECRTVIEDMLAMPKAALLNDCVCDGLERPICESVKENMARLCFGAELGNGPGSSGSDGGLDDYYDEDYDDEQRTGGAGGEQPLDDDDGVPHPPRPGSGAAASGGRGDLPYGPGRRSSGGGGRLAPRGAWTPLASILLLLLGPLF ?
24.6

Quick check: percentage of EdU-negative of MQQPFNYPYPQIYWVDSSASSPWAPPGTVLPCPTSVPRRPGQRRPPPPPPPPPLPPPPPPPPLPPLPLPPLKKRGNHSTGLCLLVMFFMVLVALVGLGLGMFQLFHLQKELAELRESTSQMHTASSLEKQIGHPSPPPEKKELRKVAHLTGKSNSRSMPLEWEDTYGIVLLSGVKYKKGGLVINETGLYFVYSKVYFRGQSCNNLPLSHKVYMRNSKYPQDLVMMEGKMMSYCTTGQMWARSSYLGAVFNLTSADHLYVNVSELSLVNFEESQTFFGLYKL ?
25.2

---

- System: MCF7
- Protocol Text: percentage of EdU-negative (G0-arrested) nuclei per well, 72 h; higher = more G0 arrest
- Condition Notes: protein concentration 0.3125 µM; reference: sequence is the full UniProt precursor, the tested protein was the secreted form or ectodomain
Assay Metric: percentage of EdU-negative (%)
Give the value in % but do not write % after it.

Quick check: percentage of EdU-negative of MRALVLLLSLFLLGGQAQHVSDWTYSEGALDEAHWPQHYPACGGQRQSPINLQRTKVRYNPSLKGLNMTGYETQAGEFPMVNNGHTVQISLPSTMRMTVADGTVYIAQQMHFHWGGASSEISGSEHTVDGIRHVIEIHIVHYNSKYKSYDIAQDAPDGLAVLAAFVEVKNYPENTYYSNFISHLANIKYPGQRTTLTGLDVQDMLPRNLQHYYTYHGSLTTPPCTENVHWFVLADFVKLSRTQVWKLENSLLDHRNKTIHNDYRRTQPLNHRVVESNFPNQEYTLGSEFQFYLHKIEEILDYLRRALN ?
23.7

---

- System: MCF7
- Protocol Text: percentage of EdU-negative (G0-arrested) nuclei per well, 72 h; higher = more G0 arrest
- Condition Notes: protein concentration 0.03125 µM; reference: sequence is the full UniProt precursor, the tested protein was the secreted form or ectodomain
Assay Metric: percentage of EdU-negative (%)
Give the value in % but do not write % after it.

Quick check: percentage of EdU-negative of MSLRLDTTPSCNSARPLHALQVLLLLSLLLTALASSTKGQTKRNLAKGKEESLDSDLYAELRCMCIKTTSGIHPKNIQSLEVIGKGTHCNQVEVIATLKDGRKICLDPDAPRIKKIVQKKLAGDESAD ?
26.1

Quick check: percentage of EdU-negative of MSSAAGFCASRPGLLFLGLLLLPLVVAFASAEAEEDGDLQCLCVKTTSQVRPRHITSLEVIKAGPHCPTAQLIATLKNGRKICLDLQAPLYKKIIKKLLES ?
23.9

Quick check: percentage of EdU-negative of MKLWDVVAVCLVLLHTASAFPLPAGKRPPEAPAEDRSLGRRRAPFALSSDSNMPEDYPDQFDDVMDFIQATIKRLKRSPDKQMAVLPRRERNRQAAAANPENSRGKGRRGQRGKNRGCVLTAIHLNVTDLGLGYETKEELIFRYCSGSCDAAETTYDKILKNLSRNRRLVSDKVGQACCRPIAFDDDLSFLDDNLVYHILRKHSAKRCGCI ?
24.9

Quick check: percentage of EdU-negative of MKTLQFFFLFCCWKAICCNSCELTNITIAIEKEECRFCISINTTWCAGYCYTRDLVYKDPARPKIQKTCTFKELVYETVRVPGCAHHADSLYTYPVATQCHCGKCDSDSTDCTVRGLGPSYCSFGEMKE ?
25.3

Quick check: percentage of EdU-negative of MAAPSGGWNGVGASLWAALLLGAVALRPAEAVSEPTTVAFDVRPGGVVHSFSHNVGPGDKYTCMFTYASQGGTNEQWQMSLGTSEDHQHFTCTIWRPQGKSYLYFTQFKAEVRGAEIEYAMAYSKAAFERESDVPLKTEEFEVTKTAVAHRPGAFKAELSKLVIVAKASRTEL [Q969H8] ?
25.7

---

- Tested on: MCF7
- Protocol Text: percentage of EdU-negative (G0-arrested) nuclei per well, 72 h; higher = more G0 arrest
- Condition Notes: protein concentration 0.225 µM; reference: sequence is the full UniProt precursor, the tested protein was the secreted form or ectodomain
Assay Metric: percentage of EdU-negative
Report the figure along with its unit, number first.

MPGRSCVALVLLAAAVSCAVAQHAPPWTEDCRKSTYPPSGPTYRGAVPWYTINLDLPPYKRWHELMLDKAPVLKVIVNSLKNMINTFVPSGKIMQVVDEKLPGLLGNFPGPFEEEMKGIAAVTDIPLGEIISFNIFYELFTICTSIVAEDKKGHLIHGRNMDFGVFLGWNINNDTWVITEQLKPLTVNLDFQRNNKTVFKASSFAGYVGMLTGFKPGLFSLTLNERFSINGGYLGILEWILGKKDVMWIGFLTRTVLENSTSYEEAKNLLTKTKILAPAYFILGGNQSGEGCVITRDRKESLDVYELDAKQGRWYVVQTNYDRWKHPFFLDDRRTPAKMCLNRTSQENISFETMYDVLSTKPVLNKLTVYTTLIDVTKGQFETYLRDCPDPCIGW :: 26.1%

Quick check: percentage of EdU-negative of MLQLWKLVLLCGVLTGTSESLLDNLGNDLSNVVDKLEPVLHEGLETVDNTLKGILEKLKVDLGVLQKSSAWQLAKQKAQEAEKLLNNVISKLLPTNTDIFGLKISNSLILDVKAEPIDDGKGLNLSFPVTANVTVAGPIIGQIINLKASLDLLTAVTIETDPQTHQPVAVLGECASDPTSISLSLLDKHSQIINKFVNSVINTLKSTVSSLLQKEICPLIRIFIHSLDVNVIQQVVDNPQHKTQLQTLI [Q96DR5] ?
27.4%

---

- Test system: MCF7
- Protocol Text: percentage of EdU-negative (G0-arrested) nuclei per well, 72 h; higher = more G0 arrest
- Condition Notes: protein concentration 0.357143 µM; reference: sequence is the full UniProt precursor, the tested protein was the secreted form or ectodomain
percentage of EdU-negative values for the sequences below.
Give the value in % but do not write % after it.

MGKSASKQFHNEVLKAHNEYRQKHGVPPLKLCKNLNREAQQYSEALASTRILKHSPESSRGQCGENLAWASYDQTGKEVADRWYSEIKNYNFQQPGFTSGTGHFTAMVWKNTKKMGVGKASASDGSSFVVARYFPAGNVVNEGFFEENVLPPKK [Q9H4G4] :: 24.5

Requested read-out percentage of EdU-negative, target or system MCF7, entry MAAAWTVVLVTLVLGLAVAGPVPTSKPTTTGKGCHIGRFKSLSPQELASFKKARDALEESLKLKNWSCSSPVFPGNWDLRLLQVRERPVALEAELALTLKVLEAAAGPALEDVLDQPLHTLHHILSQLQACIQPQPTAGPRPRGRLHHWLHRLQEAPKKESAGCLEASVTFNLFRLLTRDLKYVADGNLCLRTSTHPEST [Q8IU54]
26.7

Requested read-out percentage of EdU-negative, target or system MCF7, entry MNRFLLLMSLYLLGSARGTSSQPNELSGSIDHQTSVQQLPGEFFSLENPSDAEALYETSSGLNTLSEHGSSEHGSSKHTVAEHTSGEHAESEHASGEPAATEHAEGEHTVGEQPSGEQPSGEHLSGEQPLSELESGEQPSDEQPSGEHGSGEQPSGEQASGEQPSGEHASGEQASGAPISSTSTGTILNCYTCAYMNDQGKCLRGEGTCITQNSQQCMLKKIFEGGKLQFMVQGCENMCPSMNLFSHGTRMQIICCRNQSFCNKI;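 also: secreted proteins added to cultured cells, EdU pulse at the end, nuclei found by Hoechst imaging, EdU status from nuclear versus surrounding ring intensity ratio, PBS as neutral control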
27.1
